Provenance of the data: PubChem BioAssay (NCATS)

- SYSTEM NAME: Tyrosine-protein phosphatase non-receptor type substrate 1 (Homo sapiens) + Leukocyte surface antigen CD47 (Homo sapiens) (UniProt P78324+Q08722)
- Sequence (P78324 whole entry, looked up): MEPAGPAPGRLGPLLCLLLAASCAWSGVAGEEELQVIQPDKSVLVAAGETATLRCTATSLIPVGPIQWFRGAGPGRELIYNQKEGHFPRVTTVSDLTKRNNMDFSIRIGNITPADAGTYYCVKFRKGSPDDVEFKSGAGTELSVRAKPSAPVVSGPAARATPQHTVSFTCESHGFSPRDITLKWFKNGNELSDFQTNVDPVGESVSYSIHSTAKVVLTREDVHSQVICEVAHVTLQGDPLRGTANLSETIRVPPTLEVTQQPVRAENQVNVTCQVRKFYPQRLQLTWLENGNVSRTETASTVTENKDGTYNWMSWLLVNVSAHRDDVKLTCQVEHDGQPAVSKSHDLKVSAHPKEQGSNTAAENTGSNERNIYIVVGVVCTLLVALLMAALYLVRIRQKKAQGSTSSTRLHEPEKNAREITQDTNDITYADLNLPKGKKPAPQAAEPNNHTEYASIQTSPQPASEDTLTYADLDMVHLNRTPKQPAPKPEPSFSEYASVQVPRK
- Sequence (Q08722 whole entry, looked up): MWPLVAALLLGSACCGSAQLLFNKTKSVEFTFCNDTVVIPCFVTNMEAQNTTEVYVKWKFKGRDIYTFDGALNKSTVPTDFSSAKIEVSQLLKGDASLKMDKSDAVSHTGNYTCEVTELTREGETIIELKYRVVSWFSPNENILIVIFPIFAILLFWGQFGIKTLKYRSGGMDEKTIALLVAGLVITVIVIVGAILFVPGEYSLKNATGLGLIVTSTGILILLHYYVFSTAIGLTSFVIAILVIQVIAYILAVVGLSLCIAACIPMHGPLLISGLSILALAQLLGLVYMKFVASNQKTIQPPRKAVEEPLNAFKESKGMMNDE
- EXPERIMENT SUMMARY: CD47-SIRPalpha protein protein interaction - LANCE assay qHTS validation (AID 1347057)
- RUN CONDITIONS: Recombinant CD47-His / biotin-SIRPalpha, TR-FRET ratio; series mostly up to 38.3 µM
Inconclusive results are not listed. Active and inactive are the calls of the source. Calls follow the shape of the dose curve; as a rule, active = well fitted curve in the direction sought with a large enough effect in the signal ratio, with a control signal flat (not every such curve was filed as active); inconclusive = small, poorly fitted or top-dose-only effect, or effect the other way, or a change in a side signal; inactive = no such curve, though single readings can be large or run the other way; the % refers to the signal ratio.
ASSAY READOUT: outcome

1. Brc1ccc([C@H]2CN3CCSC3=N2)cc1 : inactive
2. COc1cccc2c1[C@@H]1CN(CCCCn3c(=O)[nH]c4c(sc5ncc(-c6ccccc6)nc54)c3=O)C[C@@H]1CO2 : inactive
3. Clc1ccc2c(c1)N=C(N1CCNCC1)c1ccccc1N2 : inactive
